assayedTarget: MMP-13 (Homo sapiens, UniProt P45452)
Construct: stock solution of catalytic domain of MMP-13 enzyme (produced by Alantos or commercially available from Invitek (Berlin), Cat.# 30100812); purchased Invitek (Berlin) 30100812
methodSummary: Assay for determining MMP-13 inhibition (fluorescent substrate)
Type: biochemical
setupConditions: catalytic domain of MMP-13; range bounds printed with own units (nM to μM); read-out: MMP-13 inhibition activity (IC50 MMP-13), range

molSmiles	assayedTarget	IC50
Nc1c(N2CCc3ccc(CNC(=O)c4ncc(-c5ccc(F)cc5)c(=O)[nH]4)cc3C2)c(=O)c1=O	MMP-13 (Homo sapiens, UniProt P45452)	100 to 20000 nM

---

assayedTarget: MMP-3 (Homo sapiens)
Construct: stock solution of the catalytic domain of MMP-3 enzyme (Biomol, Cat. No. SE-109); purchased Biomol SE-109
methodSummary: Assay for determining MMP-3 inhibition (fluorescent substrate)
Assay type: biochemical
setupConditions: catalytic domain of MMP-3; upper bound class; read-out: MMP-3 inhibition activity (IC50 MMP-3)
Description: The typical assay for MMP-3 activity is carried out in assay buffer comprised of 50 mM MES, pH 6.0, 10 mM CaCl2 and 0.05% Brij-35. Different concentrations of tested compounds are prepared in assay buffer in 50 μL aliquots. […] The time-dependent increase in fluorescence is measured at the 330 nm excitation and 390 nm emission by an automatic plate multireader. The IC50 values are calculated from the initial reaction rates.
property: IC50

compound	assayedTarget	property	experimentalResult
Nc1c(N2CCc3ccc(CNC(=O)c4nc5sc6c(c5c(=O)[nH]4)CCC4(C6)OCCO4)cc3C2)c(=O)c1=O [1/8]	MMP-3 (Homo sapiens)	IC50	< 250 nM
Cc1csc2nc(C(=O)NCc3ccc4c(c3)CN(c3c(N)c(=O)c3=O)CC4)[nH]c(=O)c12 [Example 1/3]	MMP-3 (Homo sapiens)	IC50	< 250 nM

---

assayedTarget: MMP-3 (Homo sapiens, UniProt P08254)
Construct: stock solution of the catalytic domain of MMP-3 enzyme (Biomol, Cat. No. SE-109); purchased Biomol SE-109
Sequence (P08254 100-272 limits assumed): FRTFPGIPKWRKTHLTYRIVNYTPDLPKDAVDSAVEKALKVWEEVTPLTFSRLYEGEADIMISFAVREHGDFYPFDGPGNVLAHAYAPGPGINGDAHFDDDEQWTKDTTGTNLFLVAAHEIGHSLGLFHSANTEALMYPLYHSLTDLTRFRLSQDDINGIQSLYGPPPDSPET
methodSummary: Assay for determining MMP-3 inhibition (fluorescent substrate)
Type: biochemical
setupConditions: catalytic domain of MMP-3; range bounds printed with own units (nM to μM); read-out: MMP-3 inhibition activity (IC50 MMP-3), range
property: IC50

molSmiles	assayedTarget	experimentalResult
Nc1c(N2CCc3ccc(CNC(=O)c4ncc(-c5ccc(F)cc5)c(=O)[nH]4)cc3C2)c(=O)c1=O	MMP-3 (Homo sapiens, UniProt P08254)	250 to 20000 nM

---

The entries below come with measured IC50 values attached.
assayedTarget: MMP-8 (Homo sapiens)
Sequence (P22894 101-467): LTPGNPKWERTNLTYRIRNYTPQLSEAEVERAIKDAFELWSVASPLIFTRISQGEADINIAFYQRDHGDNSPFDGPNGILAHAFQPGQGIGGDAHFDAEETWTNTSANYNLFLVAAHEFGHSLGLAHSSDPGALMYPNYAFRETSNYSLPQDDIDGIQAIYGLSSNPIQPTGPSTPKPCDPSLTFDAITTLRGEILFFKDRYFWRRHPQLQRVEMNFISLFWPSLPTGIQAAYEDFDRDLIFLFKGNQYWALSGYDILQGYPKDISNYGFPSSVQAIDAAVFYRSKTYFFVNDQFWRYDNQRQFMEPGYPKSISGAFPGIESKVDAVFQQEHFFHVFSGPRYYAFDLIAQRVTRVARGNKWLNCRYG
methodSummary: Assay for determining MMP-8 inhibition (fluorescent substrate)
setupConditions: activated MMP-8 enzyme; upper bound class

molSmiles	IC50
Cc1csc2nc(C(=O)NCc3ccc4c(c3)CN(c3c(N)c(=O)c3=O)CC4)[nH]c(=O)c12	< 250 nM
Nc1c(N2CCc3ccc(CNC(=O)c4nc5sc6c(c5c(=O)[nH]4)CCC4(C6)OCCO4)cc3C2)c(=O)c1=O	< 250 nM

Where these numbers come from: patent US20080221128A1
